Assay target: T1, Antigen CD66c (CEACAM6; Sino Biological, Inc.) (UniProt P40199 35-320)
T1 construct: Bought antigen, coated on the ELISA plate; construct not described; also called CECACAM6 (CD66c) antigen; CD66c antigen
T1 sequence (looked up): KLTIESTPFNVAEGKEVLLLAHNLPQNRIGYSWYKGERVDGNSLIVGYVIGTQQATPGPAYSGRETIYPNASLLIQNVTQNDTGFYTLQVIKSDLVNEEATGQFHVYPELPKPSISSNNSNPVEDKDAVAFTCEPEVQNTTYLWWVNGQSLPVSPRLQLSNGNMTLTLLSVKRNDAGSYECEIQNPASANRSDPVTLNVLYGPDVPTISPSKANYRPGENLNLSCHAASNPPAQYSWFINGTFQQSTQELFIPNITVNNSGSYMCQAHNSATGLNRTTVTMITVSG
Assay explanation: ELISA, CEACAM6 coated 100 ng/well, antibody at 13.72 ng/ml
Measure: OD 450 nm (OD 450 nm)
Value expressed in OD 450 nm; do not type the unit.

Task: May I ask what OD 450 nm has been recorded for recombinant humanized anti-CD66c antibody Protein ID 3043 (Vk8 + VH6) (antibody, V domains shown, also called hu 3043; #71) VH: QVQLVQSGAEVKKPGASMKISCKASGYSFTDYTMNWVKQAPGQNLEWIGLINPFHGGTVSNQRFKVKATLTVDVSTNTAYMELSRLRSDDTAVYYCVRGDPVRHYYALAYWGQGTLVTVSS VL: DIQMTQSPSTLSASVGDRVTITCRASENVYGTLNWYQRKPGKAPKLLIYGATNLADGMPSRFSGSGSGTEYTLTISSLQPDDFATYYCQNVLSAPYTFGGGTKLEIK ?
Output: 1.37

Task: May I ask what OD 450 nm has been recorded for anti-CD66c chimeric antibody 8F5 (antibody, human IgG1, V domains shown, also called chimeric 8F5; chi 8F5) VH: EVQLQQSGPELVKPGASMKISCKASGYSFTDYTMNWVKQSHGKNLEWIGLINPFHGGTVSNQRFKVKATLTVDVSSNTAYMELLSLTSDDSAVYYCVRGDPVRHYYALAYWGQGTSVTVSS VL: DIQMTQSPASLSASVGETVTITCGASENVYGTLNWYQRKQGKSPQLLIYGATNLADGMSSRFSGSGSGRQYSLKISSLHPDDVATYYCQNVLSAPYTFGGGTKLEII ?
Output: 1.15

Task: May I ask what OD 450 nm has been recorded for recombinant humanized anti-CD66c antibody Protein ID 3058 (Vk8 + VH11) (antibody, human IgG1, V domains shown, also called hu 3058; #86) VH: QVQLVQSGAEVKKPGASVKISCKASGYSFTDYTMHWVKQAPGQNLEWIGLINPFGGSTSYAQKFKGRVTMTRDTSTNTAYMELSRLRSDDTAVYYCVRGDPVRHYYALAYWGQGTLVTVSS VL: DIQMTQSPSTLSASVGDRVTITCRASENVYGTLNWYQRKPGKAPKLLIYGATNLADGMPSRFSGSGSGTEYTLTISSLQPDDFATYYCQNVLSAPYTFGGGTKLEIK ?
Output: 1.06

Task: May I ask what OD 450 nm has been recorded for recombinant humanized anti-CD66c antibody Protein ID 3007 (Vk7 + VH6) (antibody, human IgG1, V domains shown, also called hu 3007; #43) VH: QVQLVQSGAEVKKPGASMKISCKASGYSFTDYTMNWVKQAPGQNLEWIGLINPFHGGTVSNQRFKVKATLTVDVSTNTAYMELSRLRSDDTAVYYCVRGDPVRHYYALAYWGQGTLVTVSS VL: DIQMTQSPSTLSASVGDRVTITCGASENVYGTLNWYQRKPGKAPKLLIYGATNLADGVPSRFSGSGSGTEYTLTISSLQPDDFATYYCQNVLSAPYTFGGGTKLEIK ?
Output: 1.64

Task: May I ask what OD 450 nm has been recorded for recombinant humanized anti-CD66c antibody Protein ID 3019 (Vk7 + VH10) (antibody, human IgG1, V domains shown, also called hu 3019; #51) VH: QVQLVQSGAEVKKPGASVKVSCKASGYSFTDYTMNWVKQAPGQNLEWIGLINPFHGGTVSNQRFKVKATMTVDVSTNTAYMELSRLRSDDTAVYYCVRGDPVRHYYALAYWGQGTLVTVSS VL: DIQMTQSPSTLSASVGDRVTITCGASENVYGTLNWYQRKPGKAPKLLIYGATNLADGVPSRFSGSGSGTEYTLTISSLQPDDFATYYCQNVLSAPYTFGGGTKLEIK ?
Output: 1.77

Task: May I ask what OD 450 nm has been recorded for recombinant humanized anti-CD66c antibody Protein ID 2938 (Vk5 + VH7) (antibody, human IgG1, V domains shown, also called hu 2938) VH: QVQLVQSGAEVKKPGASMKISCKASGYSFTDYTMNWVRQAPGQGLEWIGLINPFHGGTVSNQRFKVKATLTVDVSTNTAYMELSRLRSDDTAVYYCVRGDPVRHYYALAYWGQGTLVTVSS VL: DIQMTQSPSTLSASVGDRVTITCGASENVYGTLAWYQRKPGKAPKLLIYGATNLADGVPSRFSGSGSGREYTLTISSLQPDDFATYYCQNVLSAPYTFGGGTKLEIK ?
Output: 1.15
